B1: EIF5 (parent)
chain: KQTIGNSCKACGYRGMLDTHHKLC

# Variants of: B1
# experiment notes: protein stability index of a GFP-peptide fusion (GPS, HEK-293T) (PSI 1-6); higher = more stable;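 further: lentivirally expressed fusions sorted by FACS into six bins by GFP to DsRed ratio, PSI derived from sequencing read proportions per bin multiplied by bin number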
# experimental setup: c terminus: a fixed tail appended
Overview of reported protein stability index across a group of variants:
I only need the number, thanks.

L17Q : 3.85

Request: I'd like to know its protein stability index. The variant in question is `H21K`
Result: 3.02

Request: Let us now turn to `R14S`
Result: 3.51

Request: Lookup `C8T`
Result: 2.05

Request: `C8S`
Result: 2.19

Request: `L17H` , same question.
Result: 3.63

Request: Try the variant `I4A`
Result: 3.68

Request: Record: `N6G`
Result: 3.33

Request: And `T3R` ?
Result: 3.18

Request: Field entry: `C8W`
Result: 1.95

Request: Now consider `R14E` and answer again.
Result: 3.1
